target: Arginase-2, mitochondrial (Homo sapiens); assay: in vitro enzyme assay to detect the production of urea directly proportional to the activity of Arginase II; format: functional; design: scale not given: in the data most compounds retested in dose-response had high values; details: 33.3 µM
reported endpoint: Percent Effect (%)
Numbers only, in %.

CN1CCN(C(=O)c2ccc(=O)n(C)c2)c2ccccc21
-0.554
CN(C)C(=O)N1CCc2c(CNc3ncccn3)cncc2C1
-23.8
Cc1ccc2cc(C(=O)NCCn3nc4ccccn4c3=O)[nH]c2c1
1.23
Cc1ccc(NC2CCN(C(=O)c3cc(C(N)=O)cs3)CC2)nn1
0.444
CCc1nc(C2CCCN(C(=O)CN(C)S(C)(=O)=O)C2)no1 (stereo unspecified)
-2.32

Turning now to a further record.
The measured Percent Effect associated with CS(=O)(=O)c1ccc(C(O)CN2CCC(c3ccn[nH]3)CC2)cc1 (stereo unspecified) reads 4.94
